# System: HOP-92 NSCLC
# Measurement description: NCI-60 one-dose screen, 48 h (100 = growth as untreated, 0 = no growth, -100 = all killed)
# Measurement setup: 10 µM unless noted
This is part of a sample that, as a whole, favours compounds with a hit. Of some 83,000 tested, about 20% had one in any assay. Activity calls are given as the source filed them. The calls were made as follows: active = growth percent below 10; inactive = the rest.
Metric: growth

>>> result("Fc1ccc2nc3c(cc2c1)CSc1nnc(-c2ccc[nH]c2=S)n1N3")
"78.1% (inactive)"
>>> result("COc1cc(COC(=O)CCCCC[P+](c2ccccc2)(c2ccccc2)c2ccccc2)c(OC)c2c1OCO2")
"20.1% (inactive)"
>>> result("Cc1c([N+](=O)[O-])cc(C(C)(C)C)cc1[N+](=O)[O-]")
"96.4% (inactive)"

O=c1[nH]nc(-c2ccc(Cl)cc2)cc1Cc1cccc([N+](=O)[O-])c1 yielded growth of 44.2% (inactive)

Cn1ncc2c(Nc3ccccc3Cl)nc(Cl)nc21 yielded growth of 72.8% (inactive)

###

# Test system: OVCAR-3 ovarian
# Measurement description: NCI-60 one-dose screen, 48 h (100 = growth as untreated, 0 = no growth, -100 = all killed)
# Measurement setup: 10 µM unless noted
About 83,000 compounds went through this panel and 20% of them were active in at least one assay; those are over-represented in the sample as a whole.
Metric: growth (%)
Kindly provide the numeric value in % only, without the unit symbol.

Worked examples, 8 compounds total:
>>> numeric_readout("COc1cccc(CNCCN2C(=O)c3ccc4c5c(ccc(c35)C2=O)C(=O)N(CCNCc2cccc(OC)c2)C4=O)c1")
24.6
>>> numeric_readout("COc1ccc2c(c1)OC1=C(C(=O)OC1)C2c1cc(OC)c(OC)c(OC)c1 (centres undefined)")
-55.9
>>> numeric_readout("CN1CCN(CCCOc2ccc3ncnc(Nc4ccc(Oc5cccc(C(F)(F)F)c5)c(Cl)c4)c3c2)CC1")
30.2
>>> numeric_readout("C#CCNC(=O)[C@H](Cc1ccccc1)NC(=O)[C@]12CC[C@@H](C(=C)C)[C@@H]1[C@H]1CC[C@@H]3[C@@]4(C)Cc5c([nH]c6ccccc56)C(C)(C)[C@@H]4CC[C@@]3(C)[C@]1(C)CC2")
96.5
>>> numeric_readout("CCCCCCCCCCCC(=O)C(CCCCCCCCCC)C(=O)Nc1ccccc1 (centres undefined)")
112
>>> numeric_readout("COc1cc2nc(-c3ccc(C(F)(F)F)cc3)cc(OCCN3CCCC3)c2cc1OC")
97.3
>>> numeric_readout("CSc1nnc2c(=O)n(C)c(=O)n(C)c2n1")
144
>>> numeric_readout("COc1ccc2c(c1)OC13Oc4cc(OC)ccc4C=C1CCCC3=C2")
5.62

Attention now turns to another entry.
CN1CCN(c2cnc(C(=O)Nc3cc(F)cc4cccnc34)cn2)CC1 yielded growth of 9.25

###

# Tested on: BT-549 breast
# Measurement description: NCI-60 one-dose screen, 48 h (100 = growth as untreated, 0 = no growth, -100 = all killed)
# Measurement setup: 10 µM unless noted
Compounds without any hit were thinned out: in the full panel of roughly 83,000, 20% have a hit.
Doc: threshold 90% (exclusive). Items with growth beneath it return label 1; others return label 0.

Check out these entries, answers already filled in.
>>> assigned_category("COc1ccc2c(c1)OC13Oc4cc(OC)ccc4C=C1CCCC3=C2")
"label 1"
>>> assigned_category("O=C1Nc2ccccc2/C1=N/c1nc(-c2ccc(Cl)cc2)cs1")
"label 1"
>>> assigned_category("Fc1ccc2nc3c(cc2c1)CSc1nnc(-c2ccc[nH]c2=S)n1N3")
"label 0"
>>> assigned_category("CC(C)(C)CC(C)(C)Nc1c(-c2ccc3c(c2)OCO3)nc2cnccn12")
"label 1"
>>> assigned_category("CC(=O)O[C@]1(C(C)=O)CC[C@H]2[C@@H]3C=C(Cl)C4=CC(=O)CC[C@]4(C)[C@H]3CC[C@@]21C")
"label 0"

Switching to the query record.
Input: Strictly below 90% in growth? CC1(C)NCCC[C@]2(C)[C@H]3CC=C4[C@@H]5C[C@@](C)(CO)CC[C@]5(C)CC[C@@]4(C)[C@]3(C)CC[C@@H]12
Output: label 1

###

# Test system: A549/ATCC NSCLC
# Measurement description: NCI-60 one-dose screen, 48 h (100 = growth as untreated, 0 = no growth, -100 = all killed)
# Measurement setup: 10 µM unless noted
This is part of a sample that, as a whole, favours compounds with a hit. Of some 83,000 tested, about 20% had one in any assay.
Measured growth by item
Kindly provide the numeric value in % only, without the unit symbol.

Worked examples, 5 molecules total:
>>> numeric_readout("COc1cc2nnn3c4ncccc4c(N=O)c3c2cc1OC")
95.2
>>> numeric_readout("Cc1c2c(cc[n+]1Cc1ccccc1)c1ccc(OCC3CCCCC3)cc1n2CC1CCCCC1")
-93.1
>>> numeric_readout("COc1cc(/C=C2\\C(=O)N(Cc3ccc(Cl)cc3)c3ccccc32)cc(OC)c1OC")
9.8
>>> numeric_readout("COc1ccc(C(=O)c2cc(C)c(OC)c(C)c2)c(OC)c1N(C(=O)C(Cl)Cl)C(=O)C(Cl)Cl")
13.6
>>> numeric_readout("Nc1ncc(C#Cc2cncc(NC(=O)c3cccc(C(F)(F)F)c3)c2)c2cccnc12")
31.8

Attention now turns to another entry.
COc1ccccc1Nc1cc(O)c2c(=O)cc(-c3ccccc3)oc2c1 yielded growth of 33.7

###

# Tested on: EKVX NSCLC
# Measurement description: NCI-60 one-dose screen, 48 h (100 = growth as untreated, 0 = no growth, -100 = all killed)
# Measurement setup: 10 µM unless noted
Compounds without any hit were thinned out: in the full panel of roughly 83,000, 20% have a hit. Activity calls are given as the source filed them. How the source made its calls: active means growth percent below 10; inactive means the rest.
Metric: growth

Worked examples, 5 compounds total:
>>> result("O=C(Nc1ccc2cc3ccc(NC(=O)NC4CCCCC4)cc3nc2c1)NC1CCCCC1")
"95.1% (inactive)"
>>> result("COc1cc2nc(-c3ccc(C(F)(F)F)cc3)cc(OCCCN3CCCCC3)c2cc1OC")
"69.4% (inactive)"
>>> result("COc1cc2nc(Cc3ccc(C)cc3)[nH]c(=O)c2cc1OC")
"109% (inactive)"
>>> result("C#Cc1cccc(NC(=O)Nc2ccc(NC(=O)CCl)cc2)c1")
"88.3% [8.25 µM] (inactive)"
>>> result("Clc1ccc(C2CC(c3cccc(Nc4ccncc4)c3)=NN2c2ccc(Cl)cc2)cc1 (stereo unspecified)")
"72.3% (inactive)"

Cc1ccccc1CNc1ccc(N2CCOCC2)cc1 yielded growth of 104% (inactive)

###

# Tested on: CCRF-CEM leukemia
# Measurement description: NCI-60 one-dose screen, 48 h (100 = growth as untreated, 0 = no growth, -100 = all killed)
# Measurement setup: 10 µM unless noted
# Experimental: Growth inhibition of the CCRF-CEM human tumor cell line is measured as a screen for anti-cancer activity. Cells are grown in 96 well plates and exposed to the test compound for 48 hours. Compounds are tested at a single concentration, which is 10^-5 M for most compounds. The reported endpoint is percent growth (GI% or GIPRCNT), where numbers from 0 - 100% represent growth inhibition, and numbers from -100% - 0 represent cell death. For example, a value of 40 represents 60% growth inhibition. […]
Compounds without any hit were thinned out: in the full panel of roughly 83,000, 20% have a hit.
Measured growth by item
Kindly provide the numeric value in % only, without the unit symbol.

Worked examples, 5 compounds total:
>>> numeric_readout("COc1cccc(CCC(=O)c2cc3c(N)c(C(=O)Nc4ccccc4)sc3nc2C)c1")
29.7
>>> numeric_readout("CN(C)C(=O)OCc1nc2c(N3CCOCC3)nc(-c3ccccc3)nc2n1C")
-12
>>> numeric_readout("CCOC(=O)c1c(C)nc2c(c1N)C(=O)C(=O)N2Cc1ccc(C(F)(F)F)cc1")
39.4
>>> numeric_readout("CCCCCOc1ccc(/C=N/Nc2cc(C)nc3ccc(Br)cc23)cc1")
3.51
>>> numeric_readout("CC(=O)OCC(=O)C1(O)C(C)CC2C3C=C(C)C4=Cc5c(cnn5-c5ccccc5)CC4(C)C3C(O)CC21C (stereo not drawn)")
10.6

C#CC(=O)Nc1cccc2c1cc(C)n2-c1nc2c(c(NCc3ccccc3)n1)CCCC2 yielded growth of -26.5

C/C(=C(/c1ccccc1)c1ccc(OCC(O)CN2CCOCC2)cc1)c1ccccc1 (stereo not drawn) yielded growth of 80.4

O=C(NCCc1ccccn1)OCc1nc2nc(Cl)nc(N3CCOCC3)c2[nH]1 yielded growth of 0.909

CC(C)[N+](C)(CCOC(COc1ccccc1)COc1ccccc1)C(C)C yielded growth of 87.7

###

# Test system: COLO 205 colon
# Measurement description: NCI-60 one-dose screen, 48 h
# Measurement setup: 10 µM unless noted
Compounds without any hit were thinned out: in the full panel of roughly 83,000, 20% have a hit. Activity calls are given as the source filed them. How the source made its calls: active means growth percent below 10; inactive means the rest.
Please state which outcome applies, choosing from active, inactive

>>> assigned_category("O=C(Nc1cccc(Cl)c1)Oc1c(Br)c(Br)c(Br)c(Br)c1Br")
"inactive"
>>> assigned_category("Cc1ccc(C2CC(c3cccc(Nc4ccncc4)c3)=NN2c2ccc(Cl)cc2)cc1 (stereo not given)")
"active"
>>> assigned_category("COc1cc2nc(-c3ccc(C(F)(F)F)cc3)cc(OCCCN3CCCCC3)c2cc1OC")
"inactive"

Input: # fetch the recorded call for CCCCCCOc1ccc(C(=N)N(CCCC)CCCC)c2ccccc12 here
Output: active

Input: # fetch the recorded call for COc1ccc(-c2ncc(-c3ccccc3)[nH]2)cc1OC here
Output: inactive

Input: # fetch the recorded call for O=C1OC(=O)C2C1CC=CC2c1ccccc1 (stereo not given) here
Output: inactive

Input: # fetch the recorded call for COc1ccc(NC(=O)c2sc3nc(C)c(C(O)c4ccc(OC)cc4)cc3c2N)cc1 (stereo not given) here
Output: active
